Ki tested on human FLAP (Homo sapiens (Human), UniProt P20292): recorded values
Sequence (P20292 whole entry): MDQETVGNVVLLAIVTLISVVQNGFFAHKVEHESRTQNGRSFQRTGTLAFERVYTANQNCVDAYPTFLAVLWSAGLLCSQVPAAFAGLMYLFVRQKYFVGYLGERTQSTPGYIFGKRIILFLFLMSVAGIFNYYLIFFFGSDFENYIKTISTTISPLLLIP
Structures can show the parent of a compound that is named as a salt.
Kindly provide the numeric value in nM only, without the unit symbol.

- molecule: "CC(C)(C)c1cc(Oc2c(C3CCC3)ccc(-c3cnc(N)cn3)c2F)nc(N)n1 [Example 240]"
  Ki [nM]: 23.6
- molecule: "Fc1c(-c2cnc3c(c2)OCCN3)ccc(C2CCC2)c1Oc1ncccn1 [Example 225]"
  Ki [nM]: 2.5
- molecule: "CC(C)(C)c1ccc(-c2cnc(N)cn2)c(F)c1O[Si](C)(C)C(C)(C)C [Example 200]"
  Ki [nM]: 155
- molecule: "Nc1cnc(-c2ccc(C3CCC3)c(OCc3ccc(C(F)(F)F)cc3)c2F)cn1 [Example 1]"
  Ki [nM]: 286
- molecule: "COCc1cc(Oc2c(C3CCC3)ccc(-c3cnc(N)cn3)c2F)nc(N)n1 [Example 142]"
  Ki [nM]: 1.7

# query: Ki | item COC(=O)c1coc(COc2c(C3CCC3)ccc(-c3cnc(N)cn3)c2F)n1 [Example 281, trifluoroacetic acid salt] | system: human FLAP (Homo sapiens (Human), UniProt P20292)
101

# query: Ki | item Nc1cnc(-c2ccc(C3CCC3)c(OCC(O)Cn3ccnn3)c2F)cn1 (racemic) [Example 63] | system: human FLAP (Homo sapiens (Human), UniProt P20292)
120

# query: Ki | item Nc1cnc(-c2ccc(C3CCCCC3)c(Oc3nccc(N)n3)c2F)cn1 [Example 325] | system: human FLAP (Homo sapiens (Human), UniProt P20292)
9.5

# query: Ki | item COc1c(C2CCC2)ccc(-c2cnc(N)cn2)c1F [A] | system: human FLAP (Homo sapiens (Human), UniProt P20292)
64

# query: Ki | item N#Cc1nccc(Oc2c(C3CCC3)ccc(-c3cnc(N)cn3)c2F)n1 [Example 234] | system: human FLAP (Homo sapiens (Human), UniProt P20292)
1300

# query: Ki | item N#Cc1cccnc1Oc1c(C2CCC2)ccc(-c2cnc(N)cn2)c1F [Example 110] | system: human FLAP (Homo sapiens (Human), UniProt P20292)
2.4

# query: Ki | item Nc1cnc(-c2ccc(C3CCC3)c(OCC(O)CN3CCS(=O)(=O)CC3)c2F)cn1 (racemic) [Example 256] | system: human FLAP (Homo sapiens (Human), UniProt P20292)
434

# query: Ki | item Nc1cnc(-c2ccc(C3CCC3)c(OCc3cccc(C(=O)O)c3)c2F)cn1 [Example 4] | system: human FLAP (Homo sapiens (Human), UniProt P20292)
4

# query: Ki | item Nc1cnc(-c2ccc(C3CCC3)c(OCc3ccc(Cl)cc3)c2F)cn1 [Example 36] | system: human FLAP (Homo sapiens (Human), UniProt P20292)
220

Measured values drawn from patent US9073876B2 for this set.
